Biological target: BTK (Homo sapiens)
Construct: High control=Cell group with added DMSO and without compound, indicating microplate readings without BTK degradation; endogenous in cells; host or cells: TMD-8 cells
Test: Cell Degradation: BTK degradation in TMD-8 cells, HTRF assay
Format: cell-based
Conditions: 6 h treatment, IC50 (DC50) of BTK degradation
Reported metric: DC50 (nM)

The cases that follow already have their DC50 on record.
// sample CC(C)(C)c1noc(C(=O)NCc2ccc(-c3ncnc4[nH]c(-c5ccc(N6CCN(CC7CCN(c8ccc(N9CCC(=O)NC9=O)cc8)CC7)CC6)cc5)cc34)cc2CO)n1 , its DC50 was 0.72

// sample C[C@@H](NC(=O)c1noc(C(C)(C)C)n1)c1cc(F)c(-c2ncnc3[nH]c(-c4ccc(N5CCN(CC6CCN(c7ccc(N8CCC(=O)NC8=O)cc7)CC6)CC5)cn4)cc23)cc1CO , its DC50 was 0.25

// sample Cc1cc(N2CCC(CN3CCN(c4ccc(-c5cc6c(-c7ccc([C@@H](C)NC(=O)c8noc(C(C)(C)C)n8)c(CO)c7)ncnc6[nH]5)nc4)CC3)CC2)ccc1N1CCC(=O)NC1=O , its DC50 was 0.23

[A] Cc1c(-c2ncnc3[nH]c(-c4ccc(C5CCN(CC6CCN(c7ccc(N8CCC(=O)NC8=O)cc7)CC6)CC5)cc4)cc23)cccc1N1CCn2c(cc3c2CC(C)(C)C3)C1=O
[B] C[C@@H](NC(=O)c1nc(C(C)(C)C)no1)c1cc(F)c(-c2ncnc3[nH]c(-c4ccc(N5CCN(CC6CCN(c7ccc(N8CCC(=O)NC8=O)cc7)CC6)CC5)cn4)cc23)cc1CO
**Query** Lab log: flag the item ( A or B ) with the smaller DC50 figure. Return value: the label identifying the chosen record.
**Result** B
(B: 0.44 nM, A: 7.2 nM)

====

Molecular target: BTK (Homo sapiens)
Construct: High control=Cell group with added DMSO and without compound, indicating microplate readings without BTK degradation; endogenous in cells; host or cells: TMD-8 cells
Assay: Cell Degradation: BTK degradation in TMD-8 cells, HTRF assay
Assay type: cell-based
Conditions: 6 h treatment, IC50 (DC50) of BTK degradation
Description: TMD-8 cells are treated with compounds in 0.2% DMSO, dilution is done according to the following protocol: (1) make 500× stock solution in DMSO from 1 mM by 6-fold dilution, total 8 doses were included; (2) make 2× solution in cell culture medium by transferring 0.5 μl 500× stock solution into 125 μl medium; (3) 15 μl of 2× solution is added to cells and incubate for 6 h. […]
Reported metric: DC50 (pM)

The cases that follow already have their DC50 on record.
Reading of DC50 for Cc1cc(-c2ncnc3[nH]c(-c4ccc(OC5CCN(CC6CCN(c7ccc(N8CCC(=O)NC8=O)cc7)CC6)CC5)cc4)cc23)ccc1CNC(=O)c1nc(C(C)(C)C)no1 with BTK (Homo sapiens): 1300

Reading of DC50 for Cc1cc(-c2ncnc3[nH]c(-c4ccc(N5CCN(CC6CCN(c7ccc(N8CCC(=O)NC8=O)cc7)CC6)CC5)cc4)nc23)ccc1[C@@H](C)NC(=O)c1nc(C(C)(C)C)no1 with BTK (Homo sapiens): 1400

Reading of DC50 for Cc1cc(-c2ncnc3[nH]c(-c4ccc(N5CCN(CC6CCN(c7ccc(N8CCC(=O)NC8=O)cc7)CC6)CC5)cc4)cc23)ccc1CNC(=O)c1cn(C(C)(C)C)nn1 with BTK (Homo sapiens): 1200

Reading of DC50 for Cc1cc(-c2ncnc3[nH]c(-c4ccc(C5CCN(CC6CN(c7ccc(N8CCC(=O)NC8=O)cc7)C6)CC5)cc4)cc23)ccc1CNC(=O)c1nc(C(C)(C)C)no1 with BTK (Homo sapiens): 1000

Reading of DC50 for Cc1cc(-c2ncnc3[nH]c(-c4ccc(N5CCN(CC6CCN(c7ccc(N8CCC(=O)NC8=O)c(C)c7)CC6)CC5)nc4)cc23)ccc1[C@@H](C)NC(=O)c1noc(C2(C)CC2)n1 with BTK (Homo sapiens): 410

[1] C[C@@H](NC(=O)c1noc(C(C)(C)C)n1)c1ccc(-c2ncnc3[nH]c(-c4ccc(N5CCN(CC6CCN(c7ccc(N8CCC(=O)NC8=O)cc7)CC6)CC5)cn4)cc23)cc1F
[2] Cc1cc(-c2ncnc3[nH]c(-c4ccc(N5CCN(CC6CCN(c7ccc(N8CCC(=O)NC8=O)c(C)c7)CC6)CC5)cn4)cc23)ccc1[C@@H](C)NC(=O)c1noc(C2(C)CC2)n1
**Query** Lab log: flag the item ( 1 or 2 ) with the smaller DC50 figure. Return value: the label identifying the chosen record.
**Result** 1

====

Target: BTK (Homo sapiens)
Construct: High control=Cell group with added DMSO and without compound, indicating microplate readings without BTK degradation; endogenous in cells; host or cells: TMD-8 cells
Test: Cell Degradation: BTK degradation in TMD-8 cells, HTRF assay
Assay type: cell-based
Conditions: 6 h treatment, IC50 (DC50) of BTK degradation
Reported metric: DC50 (nM)

Reading of DC50 for Cc1cc(-c2ncnc3[nH]c(-c4ccc(N5CCN(CC6CCN(c7ccc(N8CCC(=O)NC8=O)cc7)CC6)CC5)nc4)cc23)c(F)cc1[C@@H](C)NC(=O)c1noc(C(C)(C)C)n1 with BTK (Homo sapiens): 0.59

[A] Cc1c(-c2ncnc3[nH]c(-c4ccc(N5CCN(CC6CCN(c7ccc(N8CCC(=O)NC8=O)cc7)CC6)CC5)nc4)cc23)cccc1N1CCn2c(cc3c2CC(C)(C)C3)C1=O
[B] Cc1cc(-c2ncnc3[nH]c(-c4ccc(C5CCN(CC6CCN(c7ccc(N8CCC(=O)NC8=O)cc7)CC6)C5)nc4)cc23)ccc1[C@@H](C)NC(=O)c1nc(C(C)(C)C)no1 (stereo partly drawn)
**Query** Two entries are listed, A and B . Which one carries the higher DC50? Return value: the label identifying the chosen record.
**Result** A
(A: 3.4 nM, B: 1.6 nM)

====

Target: BTK (Homo sapiens, UniProt Q06187)
Construct: High control=Cell group with added DMSO and without compound, indicating microplate readings without BTK degradation; endogenous in cells; host or cells: TMD-8 cells
Sequence (Q06187 whole entry): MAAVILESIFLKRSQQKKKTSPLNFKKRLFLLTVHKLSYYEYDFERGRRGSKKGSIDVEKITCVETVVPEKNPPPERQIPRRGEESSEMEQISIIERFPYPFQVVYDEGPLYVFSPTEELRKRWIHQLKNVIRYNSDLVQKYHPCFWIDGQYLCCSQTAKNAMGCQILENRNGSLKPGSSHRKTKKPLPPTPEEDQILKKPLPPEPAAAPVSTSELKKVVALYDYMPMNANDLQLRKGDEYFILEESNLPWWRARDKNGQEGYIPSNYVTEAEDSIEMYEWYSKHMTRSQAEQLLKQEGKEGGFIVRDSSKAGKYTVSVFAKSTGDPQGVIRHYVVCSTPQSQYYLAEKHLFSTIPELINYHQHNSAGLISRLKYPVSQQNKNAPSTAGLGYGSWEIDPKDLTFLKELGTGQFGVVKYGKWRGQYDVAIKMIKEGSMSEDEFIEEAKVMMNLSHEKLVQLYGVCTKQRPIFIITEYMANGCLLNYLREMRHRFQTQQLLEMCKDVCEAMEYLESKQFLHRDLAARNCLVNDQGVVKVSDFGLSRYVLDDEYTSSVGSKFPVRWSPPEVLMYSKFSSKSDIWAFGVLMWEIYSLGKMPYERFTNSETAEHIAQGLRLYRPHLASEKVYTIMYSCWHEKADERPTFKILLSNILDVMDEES
Experiment: Cell Degradation: BTK degradation in TMD-8 cells, HTRF assay
Type: cell-based
Details: 6 h treatment, IC50 (DC50) of BTK degradation
Reported metric: DC50 (nM)

Reading of DC50 for C[C@@H](NC(=O)c1noc(C(C)(C)C)n1)c1ccc(-c2ncnc3[nH]c(-c4ccc(N5CCN(CC6CCN(c7ccc(N8CCC(=O)NC8=O)cc7)CC6)CC5)cc4)cc23)cc1CO with BTK (Homo sapiens, UniProt Q06187): 0.5

Reading of DC50 for Cc1cc(-c2ncnc3[nH]c(-c4ccc(N5CCN(CC6CCN(c7ccc(N8CCC(=O)NC8=O)cc7)CC6)CC5)cn4)cc23)c(F)cc1[C@@H](C)NC(=O)c1noc(C(C)(C)C)n1 with BTK (Homo sapiens, UniProt Q06187): 0.54

Reading of DC50 for Cc1cc(N2CCC(CN3CCN(c4ccc(-c5cc6c(-c7ccc([C@@H](C)NC(=O)c8noc(C(C)(C)C)n8)c(CO)c7)ncnc6[nH]5)cn4)CC3)CC2)ccc1N1CCC(=O)NC1=O with BTK (Homo sapiens, UniProt Q06187): 0.27

[1] Cc1nn(C2CCN(CC3CCN(c4ccc(N5CCC(=O)NC5=O)cc4)CC3)CC2)c(C)c1-c1cc2c(-c3cc(CO)c([C@@H](C)NC(=O)c4noc(C(C)(C)C)n4)cc3F)ncnc2[nH]1
[2] Cc1cc(-c2ncnc3[nH]c(-c4c(C)nn(C5CN(CC6CCN(c7ccc(N8CCC(=O)NC8=O)cc7)CC6)C5)c4C)cc23)ccc1[C@@H](C)NC(=O)c1nc(C(C)(C)C)no1
**Query** Lab log: flag the item ( 1 or 2 ) with the smaller DC50 figure. Return value: the label identifying the chosen record.
**Result** 1
(1: 0.27 nM, 2: 0.52 nM)

====

Target: BTK (Homo sapiens, UniProt Q06187)
Construct: High control=Cell group with added DMSO and without compound, indicating microplate readings without BTK degradation; endogenous in cells; host or cells: TMD-8 cells
Assay: Cell Degradation: BTK degradation in TMD-8 cells, HTRF assay
Assay type: cell-based
Settings: 6 h treatment, IC50 (DC50) of BTK degradation
Reported metric: DC50 (nM)

The cases that follow already have their DC50 on record.
// sample Cc1cc(-c2ncnc3[nH]c(-c4ccc(C5CC6CCC(C5)N6CC5CCN(c6ccc(N7CCC(=O)NC7=O)cc6)CC5)cc4)cc23)ccc1[C@@H](C)NC(=O)c1nc(C(C)(C)C)no1 (some centres unmarked) , its DC50 was 1.4

// sample Cc1cc(-c2ncnc3[nH]c(-c4ccc(N5CCN(CC6CCN(c7ccc(N8CCC(=O)NC8=O)cc7)CC6)CC5)cc4)cc23)ccc1CNC(=O)c1noc(C(C)(C)C)n1 , its DC50 was 1.7

// sample C[C@@H](NC(=O)c1nc(C(C)(C)C)no1)c1ccc(-c2ncnc3[nH]c(-c4ccc(N5CCN(CC6CCN(c7ccc(N8CCC(=O)NC8=O)cc7)CC6)CC5)cc4)cc23)cc1CO , its DC50 was 0.4

[I] Cc1c([C@@H](C)NC(=O)c2nc(C(C)(C)C)no2)ccc(-c2ncnc3[nH]c(-c4ccc(N5CCN(CC6CCN(c7ccc(N8CCC(=O)NC8=O)cc7)CC6)CC5)cc4)cc23)c1F
[II] CC(C)(C)c1noc(C(=O)NCc2ccc(-c3ncnc4[nH]c(-c5ccc(N6CCN(CC7CCN(c8ccc(N9CCC(=O)NC9=O)cc8)CC7)CC6)cc5)cc34)cc2F)n1
**Query** Two entries are listed, I and II . Which one carries the higher DC50? Return value: the label identifying the chosen record.
**Result** II
